B1: PhoQ; a variant is named by its letters at X, in order, P23837 (parent)
chain: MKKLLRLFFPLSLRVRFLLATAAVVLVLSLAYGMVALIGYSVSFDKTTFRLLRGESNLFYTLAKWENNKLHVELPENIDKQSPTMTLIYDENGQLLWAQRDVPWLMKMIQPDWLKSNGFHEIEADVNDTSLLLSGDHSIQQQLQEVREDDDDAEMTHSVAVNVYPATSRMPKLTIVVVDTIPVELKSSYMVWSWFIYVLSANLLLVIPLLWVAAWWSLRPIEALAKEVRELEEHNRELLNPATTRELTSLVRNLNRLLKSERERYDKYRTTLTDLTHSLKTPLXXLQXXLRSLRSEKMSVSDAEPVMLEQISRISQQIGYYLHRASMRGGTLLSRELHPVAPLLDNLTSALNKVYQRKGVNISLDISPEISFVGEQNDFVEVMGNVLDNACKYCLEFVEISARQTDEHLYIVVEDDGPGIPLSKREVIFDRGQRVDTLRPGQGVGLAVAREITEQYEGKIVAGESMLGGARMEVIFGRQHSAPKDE

# Variants of: B1
# PROTOCOL SUMMARY: enrichment ratio after two sorts for PhoP signalling (ratio (wild type AVST 3.29)); higher = more functional
# CONDITIONS USED: with PhoP (E. coli)
Over roughly 140,000 sequences, “enrichment ratio after two sorts for PhoP signalling” has its median near 0; the highest 2% begin near 11. What follows is part of a selection rich in the highest values, with near analogues and random picks from the rest.
RECORDED ENDPOINT: enrichment ratio

>  <MUT>
KSCI

>  <enrichment ratio>
≤ 0.25

$$$$
>  <MUT>
MGHD

>  <enrichment ratio>
≤ 0.25

$$$$
>  <MUT>
KFQG

>  <enrichment ratio>
≤ 0.25

$$$$
>  <MUT>
TSCE

>  <enrichment ratio>
8.23

$$$$
>  <MUT>
YSCV

>  <enrichment ratio>
15.6

$$$$

Summary for this variant, "QVFR" : enrichment ratio is ≤ 0.25

Notebook: "YRCV" , enrichment ratio read as ≤ 0.25

Form: variant = "NIQR" ; enrichment ratio = ≤ 0.25

Entry "TSCI" ; enrichment ratio = 14.8

Memo: "KSCV" , reported enrichment ratio: ≤ 0.25

For record "FTRQ" the listed enrichment ratio is ≤ 0.25
